The reader will find reported Binding to 1 nM KDR, % values listed item by item below.
- MEASUREMENT TARGET: T1, human vascular endothelial growth factor receptor-2 Fc chimera (KDR-Fc) (human, UniProt P35968 20-764)
- T1 construct: range 1-764; Purchased from R&D Systems; also called hKDR; human VEGF-R2-Fc; not shown: human IgG1 Fc
- T1 sequence (P35968 20-764 limits assumed, change not shown, form in doubt): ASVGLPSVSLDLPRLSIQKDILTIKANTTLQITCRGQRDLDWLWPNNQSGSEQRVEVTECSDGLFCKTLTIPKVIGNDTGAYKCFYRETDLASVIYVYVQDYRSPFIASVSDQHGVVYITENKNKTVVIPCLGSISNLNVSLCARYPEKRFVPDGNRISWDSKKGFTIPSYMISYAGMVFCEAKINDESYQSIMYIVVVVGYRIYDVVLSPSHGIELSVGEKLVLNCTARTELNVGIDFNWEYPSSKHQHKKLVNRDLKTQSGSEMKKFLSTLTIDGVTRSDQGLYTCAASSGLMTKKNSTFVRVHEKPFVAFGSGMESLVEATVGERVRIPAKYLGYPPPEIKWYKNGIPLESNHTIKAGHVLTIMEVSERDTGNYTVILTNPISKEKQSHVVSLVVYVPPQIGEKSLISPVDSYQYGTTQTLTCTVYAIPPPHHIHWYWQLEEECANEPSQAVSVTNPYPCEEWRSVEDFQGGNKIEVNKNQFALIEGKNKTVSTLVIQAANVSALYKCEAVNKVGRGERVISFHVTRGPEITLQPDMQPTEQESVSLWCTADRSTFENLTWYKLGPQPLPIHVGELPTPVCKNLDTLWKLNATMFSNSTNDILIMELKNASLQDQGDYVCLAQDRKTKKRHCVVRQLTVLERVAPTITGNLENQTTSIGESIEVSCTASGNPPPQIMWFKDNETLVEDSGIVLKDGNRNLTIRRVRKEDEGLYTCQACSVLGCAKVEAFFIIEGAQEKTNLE
- TEST PROTOCOL: radioactive equilibrium binding, 1 nM KDR-Fc
EXPERIMENTAL ENDPOINT: Binding to 1 nM KDR, % (%)

>>> observed_result("1′DelG9 PR4 (designed binder, in vitro translated) EVVAATPTSLLISWRHPHFPTRYYRITYGETGGNSPVQEFTVPLQPPTATISGLKPGVDYTITVYAVTVAQSDHELMTPISINYRT")
10
>>> observed_result("2′DelB9 PR4 (designed binder, in vitro translated) EVVAATPTSLLISWRHPHFPTRYYRITYGETGGNSPVQEFTVPLQPPTATISGLKPGVDYTITVYAVTVGPTDHELLTPISINYRT")
11
>>> observed_result("2′G11-PR4 (designed binder, in vitro translated) VSDVPRDLEVVAATPTSLLISWRHPHFPTRYYRITYGETGGNSPVQEFTVPLQPPTATISGLKPGVDYTITVYAVTGGQMNRVLMTPISINYRT")
12
>>> observed_result("3F4 PR3 (designed binder, in vitro translated) EVVAATPTSLLISWRHPHFPTRYYRITYGETGGNSPVQEFTVPLQPPTATISGLKPGVDYTITVYAVTMGYEDHELITPISINYRT")
10
>>> observed_result("3′E8 PR4 (designed binder, in vitro translated) EVVAATPTSLLISWRHPHFPTRYYRITYGETGGNSPVQEFTVPLQPPTATISGLKPGVDYTITVYAVTVAQNDRQLFTPISINYRT")
12
